TESTED ON: human CRTH2 (Homo sapiens, UniProt Q9Y5Y4)
TEST PROTOCOL: Human CRTH2 Receptor Binding Assay (whole cell, [3H]ramatroban)
Parameters: expressed in transfected cells; host or cells: CHO-K1
EXPERIMENTAL CONTEXT: CHO-K1 cells expressing human CRTH2 and G-alpha16; 20 nM [3H]ramatroban; 1 hour, room temperature
IC50 vs 10 nM: less than gives YES; not less than gives NO.

Input: Given the entry `CCS(=O)(=O)c1ccc(C(=O)c2c(C)c(CC(=O)O)cc3ccc(F)cc23)cc1` , would its reported IC50 be below 10 nM?
Output: YES

Input: Given the entry `Cc1c(CC(=O)O)cc2ccc(F)cc2c1Cc1ccc(S(=O)(=O)Cc2ccccc2)cc1` , would its reported IC50 be below 10 nM?
Output: YES

Input: Given the entry `CC(C)(C)OC(=O)N1CCN(S(=O)(=O)c2ccc(C(=O)c3cc(CC(=O)O)cc4ccc(F)cc34)cc2)CC1` , would its reported IC50 be below 10 nM?
Output: NO

Input: Given the entry `Cc1c(CC(=O)O)cc2ccc(F)cc2c1Cc1ccccc1S(=O)(=O)c1ccccc1` , would its reported IC50 be below 10 nM?
Output: YES

Input: Given the entry `Cc1c(CC(=O)O)cc2ccc(F)cc2c1Cc1ccc(OCc2ccccc2)cc1` , would its reported IC50 be below 10 nM?
Output: YES

Input: Given the entry `CNS(=O)(=O)c1ccc(Cc2cc(CC(=O)O)cc3ccc(F)cc23)cc1` , would its reported IC50 be below 10 nM?
Output: YES

Input: Given the entry `Cc1ccc2cc(CC(=O)O)cc(C(=O)c3ccc(S(C)(=O)=O)cc3)c2c1` , would its reported IC50 be below 10 nM?
Output: NO

Input: Given the entry `COc1ccc2c(C(=O)c3ccc(S(C)(=O)=O)cc3)cc(CC(=O)O)cc2c1` , would its reported IC50 be below 10 nM?
Output: NO

Input: Given the entry `Cc1cc(S(C)(=O)=O)ccc1C(=O)c1cc(CC(=O)O)cc2ccc(F)cc12` , would its reported IC50 be below 10 nM?
Output: NO

Input: Given the entry `Cc1c(CC(=O)O)cc2ccc(F)cc2c1Cc1ccc(F)cc1` , would its reported IC50 be below 10 nM?
Output: NO

====

TESTED ON: human CRTH2 (Homo sapiens, UniProt Q9Y5Y4)
TEST PROTOCOL: Human CRTH2 Receptor Binding Assay (whole cell, [3H]ramatroban)
Set-up: expressed in transfected cells; host or cells: CHO-K1
EXPERIMENTAL CONTEXT: CHO-K1 cells expressing human CRTH2 and G-alpha16; 20 nM [3H]ramatroban; 1 hour, room temperature
METRIC: pIC50
Lab note: report pIC50 as minus log10 of the concentration in molar units, number only.

Input: Which value of pIC50 has been reported for `CCS(=O)(=O)c1ccc(C(=O)c2cc(CC(=O)O)cc3ccc(F)cc23)c(Cl)c1` in the records?
Output: 7.95

Input: Which value of pIC50 has been reported for CS(=O)(=O)c1ccc(C(O)c2cc(CC(=O)O)cc3ccc(F)cc23)c(Cl)c1 (stereo not shown) in the records?
Output: 7.79

Input: Which value of pIC50 has been reported for CS(=O)(=O)c1ccc(C(O)c2cc(CC(=O)O)cc3ccccc23)cc1 (stereo not shown) in the records?
Output: 7.45

Input: Which value of pIC50 has been reported for `Cc1c(CC(=O)O)cc2ccc(F)cc2c1Cc1ccc(Br)cc1` in the records?
Output: 7.62

====

Readings of IC50 for the listed compounds
TESTED ON: UniProt Q9Y5Y4
TEST PROTOCOL: Human CRTH2 Receptor Binding Assay (whole cell, [3H]ramatroban)
Set-up: expressed in transfected cells; host or cells: CHO-K1
EXPERIMENTAL CONTEXT: CHO-K1 cells expressing human CRTH2 and G-alpha16; 20 nM [3H]ramatroban; 1 hour, room temperature
The reply should be a number in µM, with the unit left off.

Field: example entries. Status: answers known.
> print(dat)
                                   compound  result.number
1  Cc1ccc2cc(CC(=O)O)cc(Cc3ccc(S(C)(=O)=O)cc3)c2c1         0.0878
2  CS(=O)(=O)c1ccc(C(=O)c2cc(CC(=O)O)cc3ccc(F)cc23)cc1         0.0043
3  Cc1c(CC(=O)O)cc2ccc(F)cc2c1C(=O)c1ccc(S(C)(=O)=O)cc1         0.0021

Input: Which value of IC50 has been reported for `CCS(=O)(=O)c1ccc(C(=O)c2cc(CC(=O)O)cc3ccc(F)cc23)cc1` in the records?
Output: 0.003

Input: Which value of IC50 has been reported for `CS(=O)(=O)c1ccc(Cc2cc(CC(=O)O)cc3ccc(C(F)(F)F)cc23)cc1` in the records?
Output: 0.0153

Input: Which value of IC50 has been reported for CS(=O)(=O)c1ccc(C(O)c2cc(CC(=O)O)cc3ccc(Cl)cc23)cc1 (centres unmarked) in the records?
Output: 0.0159

Input: Which value of IC50 has been reported for Cc1c(CC(=O)O)cc2ccc(F)cc2c1C(O)c1ccc(S(C)(=O)=O)cc1 (centres unmarked) in the records?
Output: 0.0118

Input: Which value of IC50 has been reported for `Cc1c(CC(=O)O)cc2ccc(F)cc2c1Cc1ccc(-n2cccn2)cc1` in the records?
Output: 0.0267

====

TESTED ON: human CRTH2 (Homo sapiens)
Sequence (Q9Y5Y4 1-395): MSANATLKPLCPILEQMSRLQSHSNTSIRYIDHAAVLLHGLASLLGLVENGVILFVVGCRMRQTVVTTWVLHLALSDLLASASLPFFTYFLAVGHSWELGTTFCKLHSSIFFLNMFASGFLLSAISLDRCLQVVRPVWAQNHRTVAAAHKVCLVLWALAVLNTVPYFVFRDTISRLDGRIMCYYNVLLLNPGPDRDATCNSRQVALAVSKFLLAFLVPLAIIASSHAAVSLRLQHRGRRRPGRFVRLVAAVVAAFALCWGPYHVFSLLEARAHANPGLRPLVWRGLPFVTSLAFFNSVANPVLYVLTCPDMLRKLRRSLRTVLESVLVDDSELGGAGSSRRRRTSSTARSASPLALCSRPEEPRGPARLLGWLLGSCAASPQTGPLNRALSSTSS
TEST PROTOCOL: Human CRTH2 Receptor Binding Assay (whole cell, [3H]ramatroban)
Design: expressed in transfected cells; host or cells: CHO-K1
EXPERIMENTAL CONTEXT: CHO-K1 cells expressing human CRTH2 and G-alpha16; 20 nM [3H]ramatroban; 1 hour, room temperature
METRIC: pIC50
Lab note: report pIC50 as minus log10 of the concentration in molar units, number only.

> print(dat)
                                   compound  result.number
1  CS(=O)(=O)c1ccc(C(=O)c2cc(CC(=O)O)cc3cc(F)c(F)cc23)cc1 [Example 2-6]           7.81
2  Cc1c(CC(=O)O)cc2ccc(F)cc2c1Cc1ccc(S(C)(=O)=O)cc1 [Example 10-1]           8.41
3  COc1ccc2cc(CC(=O)O)cc(C(=O)c3ccc(S(C)(=O)=O)cc3)c2c1 [Example 2-2]           7.58

Turning to the following compound.
Input: Which value of pIC50 has been reported for CS(=O)(=O)c1ccc(C(F)(F)c2cc(CC(=O)O)cc3ccc(F)cc23)c(Cl)c1 [Example 17-1] in the records?
Output: 8.24

====

Readings of IC50 for the listed compounds
TESTED ON: human CRTH2 (Homo sapiens)
Sequence (Q9Y5Y4 1-395): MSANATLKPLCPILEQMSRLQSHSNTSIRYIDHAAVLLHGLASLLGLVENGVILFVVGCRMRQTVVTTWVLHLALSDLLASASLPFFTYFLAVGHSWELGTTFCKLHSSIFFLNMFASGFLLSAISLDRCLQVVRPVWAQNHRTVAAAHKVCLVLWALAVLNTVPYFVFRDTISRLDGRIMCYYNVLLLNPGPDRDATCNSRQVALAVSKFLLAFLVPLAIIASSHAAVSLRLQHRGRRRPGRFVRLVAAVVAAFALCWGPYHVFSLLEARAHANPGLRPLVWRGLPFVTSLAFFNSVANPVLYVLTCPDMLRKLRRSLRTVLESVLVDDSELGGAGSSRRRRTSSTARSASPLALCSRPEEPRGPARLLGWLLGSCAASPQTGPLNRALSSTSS
TEST PROTOCOL: Human CRTH2 Receptor Binding Assay (whole cell, [3H]ramatroban)
Parameters: expressed in transfected cells; host or cells: CHO-K1
EXPERIMENTAL CONTEXT: CHO-K1 cells expressing human CRTH2 and G-alpha16; 20 nM [3H]ramatroban; 1 hour, room temperature
The reply should be a number in nM, with the unit left off.

> print(dat)
                                   compound  result.number
1  CCS(=O)(=O)c1ccc(C(=O)c2cc(CC(=O)O)cc3ccc(F)cc23)c(C)c1           17.9
2  CNS(=O)(=O)c1ccc(C(O)c2cc(CC(=O)O)cc3ccc(F)cc23)cc1 (stereo not shown)           22.1

Input: Which value of IC50 has been reported for `Cc1c(CC(=O)O)cc2ccc(F)cc2c1Cc1ccc(C#N)cc1` in the records?
Output: 12.4

Input: Which value of IC50 has been reported for `Cc1c(CC(=O)O)cc2ccc(F)cc2c1Cc1ccc(OC(F)(F)F)cc1` in the records?
Output: 79.3

Measured values drawn from patent US8124629B2 for this set.
